- System: CLK4;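 also: KINOMEscan scanMAX binding as percent activity remaining versus control; lower means stronger binding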
- condition-notes: Compound Concentration (nM):1000
readout-label: Percent Control (%)
State just the number; it will be interpreted in %.

Entry Cc1cc(O)cc(C)c1/C=C/c1cncc(C(N)=O)c1 [GW435821X] has what Percent Control?
74

Requested read-out: Percent Control. Entry: C/C(Nc1ccc(S(N)(=O)=O)cc1)=C1/C(=O)Nc2ccccc21 [GW335962X]
100

Can you look up the measured Percent Control of CCc1ccc(Oc2nccc(-c3c(-c4ccc(F)cc4)ncn3C3CCNCC3)n2)cc1 [SB-242719] for me?
100

Quick one: Percent Control for Cl.O=C(Nc1ccc(Oc2ccc3[nH]c(NC(=O)c4ccccc4)nc3c2)cc1)Nc1cc(C(F)(F)F)ccc1F [GW709042A] ?
79

Endpoint output: Percent Control of NS(=O)(=O)c1ccc(N/N=C2\C(=O)Nc3ccc(Cl)cc32)cc1 [GW280670X] . Value?
96

# get_value(readout='Percent Control', item= C[C@@H](Oc1cc(-n2cnc3ccc(OC4CCN(C)CC4)cc32)sc1C(N)=O)c1ccccc1Cl [GSK579289A] )
95

Tell me the measured Percent Control of COc1cccc(-n2ncc3c(N/N=C/c4ccncc4)ncnc32)c1 [GW784752X] , please.
45

Quick one: Percent Control of COc1cc(C)c(N(C)C(=O)CN(C)C)cc1Nc1nc(Nc2cccc(F)c2C(N)=O)c2cc[nH]c2n1 [GSK2219385] ?
67

Which value of Percent Control has been reported for NS(=O)(=O)c1ccc(N/N=C2\C(=O)Nc3ccc(-c4cnco4)cc32)cc1 [GW276655] in the records?
37

Given the compound O=C(Nc1n[nH]c2nc(-c3ccc(O)cc3)c(Br)cc12)C1CC1 [SB-725317] , what is its reported Percent Control?
100

Quick one: Percent Control for COC(=O)Nc1nc2ccc(Oc3ccc(NC(=O)Nc4cc(C(F)(F)F)ccc4F)cc3)cc2s1.Cl [GW693917A] ?
100

What does the record list as Percent Control for CN(C)c1cc2c(Nc3ccc4c(cnn4Cc4ccccc4)c3)ncnc2cn1 [GW282974X] ?
100

Name the recorded Percent Control for COc1cc(C=NNc2ncnc3c2cnn3-c2ccccc2)ccc1O [GW513184X] .
60

For the compound shown here, COc1cccc(-c2c[nH]c3c(N/N=C/c4ccncc4)ncnc23)c1 [GW814408X] , give the reported Percent Control.
30

Record request: Percent Control value, item CCS(=O)(=O)c1ccc(OC)c(Nc2ncc(-c3cccc(OC)c3)o2)c1 [GW580509X]
15

Give the measured Percent Control of Cl.O=S1CCN(Cc2ccc(-c3ccc4ncnc(Nc5ccc(OCc6ccccc6)c(F)c5)c4c3)o2)CC1 [GW576924A] .
100

Find the recorded Percent Control belonging to COc1ccccc1-c1cc(/C=C2\C(=O)Nc3ncc(Br)cc32)cc(Br)c1O [GW442130X] and report it.
85
